Just for reference, ChEMBL document CHEMBL4396892 is where these values come from.

Test Target: Aromatase (Homo sapiens, UniProt P11511)
Sequence (P11511 whole entry): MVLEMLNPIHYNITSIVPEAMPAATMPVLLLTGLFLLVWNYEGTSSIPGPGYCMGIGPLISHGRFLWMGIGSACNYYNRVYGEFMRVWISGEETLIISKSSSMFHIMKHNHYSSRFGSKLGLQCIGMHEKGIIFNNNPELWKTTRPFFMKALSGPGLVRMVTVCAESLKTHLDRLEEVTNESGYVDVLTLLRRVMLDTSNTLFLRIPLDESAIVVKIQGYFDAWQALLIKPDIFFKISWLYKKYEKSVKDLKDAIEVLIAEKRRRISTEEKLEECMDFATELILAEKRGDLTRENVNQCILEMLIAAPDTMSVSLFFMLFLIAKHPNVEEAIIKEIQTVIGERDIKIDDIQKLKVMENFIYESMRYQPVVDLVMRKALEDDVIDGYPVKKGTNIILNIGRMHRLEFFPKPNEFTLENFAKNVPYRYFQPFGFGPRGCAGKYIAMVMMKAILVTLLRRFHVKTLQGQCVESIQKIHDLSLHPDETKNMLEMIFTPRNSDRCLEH
Assay type: microsomes, Placenta, Microsome
Measured Parameter: pIC50
// pIC50: -log10(molar conc.)

INPUT: Given N#Cc1ccc(N(Cc2ccc(Br)cc2)n2cnnc2)cc1 , state its recorded pIC50.
OUTPUT: 9.40

***
INPUT: Given O=[N+]([O-])c1ccc(N(Cc2ccc(Br)cc2)n2cnnc2)cc1 , state its recorded pIC50.
OUTPUT: 9.92

---

Test Target: UniProt:P08842
Sequence (P08842 whole entry): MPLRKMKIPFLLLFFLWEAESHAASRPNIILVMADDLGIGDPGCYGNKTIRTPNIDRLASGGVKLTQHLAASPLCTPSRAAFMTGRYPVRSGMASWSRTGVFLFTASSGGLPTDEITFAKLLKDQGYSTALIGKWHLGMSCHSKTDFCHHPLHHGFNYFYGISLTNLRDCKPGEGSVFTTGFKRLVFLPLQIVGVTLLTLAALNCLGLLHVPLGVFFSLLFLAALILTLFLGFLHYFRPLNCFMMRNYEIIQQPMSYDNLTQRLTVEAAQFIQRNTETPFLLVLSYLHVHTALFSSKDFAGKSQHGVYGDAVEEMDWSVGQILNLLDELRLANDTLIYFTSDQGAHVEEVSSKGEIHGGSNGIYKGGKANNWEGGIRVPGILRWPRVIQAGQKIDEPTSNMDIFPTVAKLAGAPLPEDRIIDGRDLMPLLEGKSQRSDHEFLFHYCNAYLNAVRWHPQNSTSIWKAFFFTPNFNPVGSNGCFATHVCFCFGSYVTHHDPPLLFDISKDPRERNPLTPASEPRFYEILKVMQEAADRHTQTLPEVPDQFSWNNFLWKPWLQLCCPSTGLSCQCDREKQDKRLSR
Measured Parameter: Ki

INPUT: Given CC/C(=C(\c1ccc(OCCN(C)C)cc1)c1ccc(OS(N)(=O)=O)cc1)c1ccccc1 , state its recorded Ki.
OUTPUT: > 500 µM

***
INPUT: Given C[C@]12CC[C@@H]3c4ccc(C(F)(F)S(N)(=O)=O)cc4CC[C@H]3[C@@H]1CCC2=O , state its recorded Ki.
OUTPUT: 28 to 82 µM

INPUT: Given CC/C(=C(/c1ccc(OCCN(C)C)cc1)c1ccc(OS(N)(=O)=O)cc1)c1ccccc1 , state its recorded Ki.
OUTPUT: 35.9 µM

---

Test Target: Steryl-sulfatase (Homo sapiens, UniProt P08842)
Type: cell-based, HEK293
Measured Parameter: IC50 (µM)
Respond numerically; units are µM and should not be typed.

INPUT: Please tell me: IC50 of CC(C)(C)c1ccc(C[C@]2(O)CC[C@H]3[C@@H]4CC=C5C[C@@H](OS(N)(=O)=O)CC[C@]5(C)[C@H]4CC[C@@]32C)cc1 , system Steryl-sulfatase (Homo sapiens, UniProt P08842)?
OUTPUT: 0.014

---

Test Target: Steryl-sulfatase (Homo sapiens)
Type: cell-based, HEK293
Measured Parameter: IC50 (nM)
Respond numerically; units are nM and should not be typed.

INPUT: Please tell me: IC50 of CC(C)(C)c1ccc(C[C@]2(O)CC[C@H]3[C@@H]4CC=C5C[C@@H](OS(N)(=O)=O)CC[C@]5(C)[C@H]4CC[C@@]32C)cc1 , system Steryl-sulfatase (Homo sapiens)?
OUTPUT: 46

---

Test Target: Aromatase (Homo sapiens, UniProt P11511)
Measured Parameter: IC50
Field note: include the unit after the figure.

INPUT: Given Oc1ccc2c(c1)O[C@@H](c1ccccc1)C[C@@H]2n1ccnc1 , state its recorded IC50.
OUTPUT: 41 nM

---

A set of compounds tested on Steryl-sulfatase (Homo sapiens, UniProt P08842), with measured log10 IC50:
Recall that a logarithmic scale is used here: each number is log10 of IC50 in nM.

Reference set (3 entries):
INPUT: Please tell me: log10 IC50 of C[C@]12CC[C@@H]3c4ccc(NC(=O)C(F)(F)F)cc4CC[C@H]3[C@@H]1CCC2=O , system Steryl-sulfatase (Homo sapiens, UniProt P08842)?
OUTPUT: 3.94

INPUT: Please tell me: log10 IC50 of CCCCCCCCCCCCC(=O)NCCc1ccc(OS(N)(=O)=O)cc1 , system Steryl-sulfatase (Homo sapiens, UniProt P08842)?
OUTPUT: 1.75

INPUT: Please tell me: log10 IC50 of O=c1oc2cc(OP(=O)(O)O)ccc2c2c1CCCC2 , system Steryl-sulfatase (Homo sapiens, UniProt P08842)?
OUTPUT: 4.58

***
INPUT: Please tell me: log10 IC50 of N#Cc1ccc(N(Cc2ccc(OS(N)(=O)=O)cc2F)n2cnnc2)cc1 , system Steryl-sulfatase (Homo sapiens, UniProt P08842)?
OUTPUT: 0.40

INPUT: Please tell me: log10 IC50 of N#Cc1ccc2sc(C34CC5CC(CC(C5)C3)C4)cc(=O)c2c1 , system Steryl-sulfatase (Homo sapiens, UniProt P08842)?
OUTPUT: 2.26

---

Test Target: Steryl-sulfatase (Homo sapiens, UniProt P08842)
Format: microsomes, Placenta, Microsome
Measured Parameter: pIC50
// pIC50: -log10(molar conc.)

INPUT: Given CCCCCCCCCCCCCC(=O)NCc1ccc(OS(N)(=O)=O)cc1 , state its recorded pIC50.
OUTPUT: 7.14

---

Test Target: UniProtKB P08842
Measured Parameter: Ki
Field note: include the unit after the figure.

INPUT: Please tell me: Ki of COc1c2c(c(O)c3c1C(=O)c1cc(C)c(O)cc1C3=O)-c1c(cc(/C=N/NC(=S)NC3CCCCC3)c(C(=O)O)c1O)CC2 , system UniProtKB P08842?
OUTPUT: 350 nM

---

Test Target: UniProt:P11511
Sequence (P11511 whole entry): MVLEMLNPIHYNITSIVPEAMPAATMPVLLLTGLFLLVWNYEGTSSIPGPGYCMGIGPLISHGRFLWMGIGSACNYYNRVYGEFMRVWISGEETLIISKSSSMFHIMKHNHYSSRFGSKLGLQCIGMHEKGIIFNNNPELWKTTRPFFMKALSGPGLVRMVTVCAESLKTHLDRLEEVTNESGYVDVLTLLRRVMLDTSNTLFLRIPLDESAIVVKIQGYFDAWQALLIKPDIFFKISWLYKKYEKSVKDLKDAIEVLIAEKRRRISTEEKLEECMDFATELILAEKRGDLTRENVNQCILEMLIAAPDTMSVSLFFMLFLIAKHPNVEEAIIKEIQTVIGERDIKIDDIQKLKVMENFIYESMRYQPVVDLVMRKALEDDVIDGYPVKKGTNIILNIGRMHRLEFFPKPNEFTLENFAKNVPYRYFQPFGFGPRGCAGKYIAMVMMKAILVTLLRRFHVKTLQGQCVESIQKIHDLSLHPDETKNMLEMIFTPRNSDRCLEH
Assay type: microsomes, Placenta, Microsome
Measured Parameter: IC50 (nM)
Respond numerically; units are nM and should not be typed.

INPUT: Given COc1ccc2c(c1)C(N)=C(Cc1ccncc1)C2=O , state its recorded IC50.
OUTPUT: 100

---

Test Target: Estrogen receptor (Homo sapiens)
Sequence (P03372 whole entry): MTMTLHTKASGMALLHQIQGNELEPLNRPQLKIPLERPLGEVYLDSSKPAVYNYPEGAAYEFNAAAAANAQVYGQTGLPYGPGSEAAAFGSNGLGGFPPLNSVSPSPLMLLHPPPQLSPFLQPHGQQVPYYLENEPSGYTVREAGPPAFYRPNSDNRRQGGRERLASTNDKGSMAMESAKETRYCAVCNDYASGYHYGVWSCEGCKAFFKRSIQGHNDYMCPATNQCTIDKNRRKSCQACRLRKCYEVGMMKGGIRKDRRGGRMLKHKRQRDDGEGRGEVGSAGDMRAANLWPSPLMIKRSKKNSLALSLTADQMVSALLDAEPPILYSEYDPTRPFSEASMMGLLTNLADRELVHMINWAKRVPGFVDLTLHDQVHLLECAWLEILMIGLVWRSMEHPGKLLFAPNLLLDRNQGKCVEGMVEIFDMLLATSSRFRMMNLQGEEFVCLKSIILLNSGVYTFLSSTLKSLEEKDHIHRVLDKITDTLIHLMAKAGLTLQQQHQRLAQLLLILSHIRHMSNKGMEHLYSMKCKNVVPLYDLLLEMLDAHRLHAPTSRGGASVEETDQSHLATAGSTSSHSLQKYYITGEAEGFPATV
Measured Parameter: IC50 (nM)
Respond numerically; units are nM and should not be typed.

INPUT: Please tell me: IC50 of CC/C(=C(\c1ccc(O)cc1)c1ccc(OCCNCCCCCCNC(=O)CCC2=[N+]3C(=CC4=CC=C(C)C4[B-]3(F)F)C=C2)cc1)c1ccccc1 (stereo unspecified) , system Estrogen receptor (Homo sapiens)?
OUTPUT: 30
